Tested on: UACC-257 melanoma
method_notes: NCI tumour cell line growth inhibition, 48 h
Reported TGI values for the following compounds.

### Prompt UACC-257 melanoma / TGI / O=C(Nc1c(O)[nH]c(=S)[nH]c1=O)c1ccco1 : value?
### Response > 100 µM

### Prompt Moving on to S=c1oc(CCCCCCCCc2nn(CNc3ccccc3)c(=S)o2)nn1CNc1ccccc1
### Response > 100 µM

### Prompt // repeat for [N-]=[N+]=NCC1OC(n2cnc3c(N)ncnc32)C2OC12 (configuration not stated) and report
### Response > 100 µM

### Prompt # repeat for O=C1NC(N/N=C/c2cccs2)=N/C1=C\c1ccco1
### Response > 100 µM

### Prompt Now consider Cn1c(-c2cccc(N)c2)[n+](C)c2ccccc21 .
### Response > 100 µM

---
### Prompt # query: TGI | item COc1ccc(Nc2nc3cc(C(F)(F)F)ccc3n3cccc23)cc1OC | system: UACC-257 melanoma
### Response 34.8 µM

### Prompt Now consider COc1ccc2c(c1)O/C(=C\c1ncc([N+](=O)[O-])n1C)C2=O .
### Response 2.16 µM

### Prompt Now give it for O=C(Nc1ccc(F)cc1F)c1cc(F)ccc1O too.
### Response 7.32 µM

### Prompt CC1(C)S[C@H](c2ccccc2C(=O)O)N[C@@H]1CC(=O)O , same question.
### Response > 100 µM

### Prompt Follow-up item: C[N+]1([O-])CCC(O)(C2CC2)CC1 (configuration not stated)
### Response > 100 µM

### Prompt Further, for O=C(NC1CCCCC1)OCc1c(COC(=O)NC2CCCCC2)c(-c2ccc(Cl)c(Cl)c2)n2c1CCC2 ?
### Response 37.4 µM

### Prompt Clc1ccccc1CN1COc2c(cc(Cl)c3cccnc23)C1 , same question.
### Response 12.3 µM

### Prompt # repeat for CCOC(=O)C1=C(C)NC(C)=C(C(=O)OCC)C1c1ccc(Cl)cc1
### Response 27.4 µM

### Prompt Same again, this time with COc1ccc([C@H]2CC(=O)C[C@H](c3ccc(OC)cc3OC)C23C(=O)c2ccccc2C3=O)c(OC)c1
### Response > 100 µM

###

System: UACC-62 melanoma
method_notes: NCI tumour cell line growth inhibition, 48 h
endpoint: TGI (µM)
Response body: numeric value in µM, unit text excluded.

Solved cases below.
### Prompt Endpoint output: TGI of CC(C)N(Cc1c(F)cccc1F)c1ccc(CO)c(Cl)c1 . Value?
### Response 0.398

### Prompt Input Nc1cc(N)c2nc(-c3ccccc3)c(NCCc3ccc(Cl)c(Cl)c3)nc2c1
### Response 7.97

### Prompt # iterate: O=C(/C=C\Sc1ccccn1)c1cccc(Br)c1
### Response 24.5

### Prompt Also, CC(=O)OC(C)(C)C1O[C@@]23OC1C[C@@H](C)[C@@H]2[C@@]1(C)CC[C@@]24C[C@@]25CC[C@H](OC2OCC(O)C(O)C2O)C(C)(C)[C@@H]5CCC4[C@]1(C)[C@H]3O (some centres undefined) please.
### Response 27.7

### Prompt Check CCOC(=O)C(Br)(C(N)=O)C1(O)OC(c2ccccc2)=C(Br)C1=O (centres undefined) too.
### Response 92.9

Continuing:
### Prompt What value of TGI has been recorded for this entry: CN1C[C@@H](c2ccc(Cl)cc2)[C@]2(NC(=S)N(c3ccc(F)c(Cl)c3)C2=O)[C@@]12C(=O)NC1C=CC(Cl)=C[C@H]12 (some centres undefined)
### Response 12.3

Where do the numbers come from? From PubChem BioAssay (NCI).
